Each item that follows carries a reported melting point.

// known answers, use as guide
Cc1nc(=O)[nH]c2cc(N(C)C)ccc12    > 300 °C
O=C(Oc1ccc(S(=O)(=O)Nc2ccccc2)cc1)c1ccc(CCBr)cc1    156 to 157 °C
Cc1ccc(-c2nn(Cc3ccccc3)c(N)c2C#N)cc1    162 to 163 °C
O=S(=O)(Nc1ccc2c(OCc3cccc(-c4ccc(F)cc4)c3)cccc2c1)C(F)(F)F    110 to 112 °C

Q: Recorded melting point for COc1ccc(Cl)c(Oc2c(CCl)nc(N3CCOCC3)nc2NS(=O)(=O)c2ccc(C(C)(C)C)cc2)c1 , please?
Result: 155 to 156 °C

Q: Recorded melting point for CCCSc1cccc(-c2nc(=O)c3ccccc3s2)n1 , please?
Result: 124 to 125 °C

Q: Recorded melting point for CCc1cccc(C)c1CNc1cc(C(=O)N2CCCC2)cc2c1nc(C)n2C , please?
Result: 126 °C

Q: Recorded melting point for Cc1cccc(C(=O)NNC(=O)c2ccccc2Cc2ccccc2)c1 , please?
Result: 149 to 150 °C

Q: Recorded melting point for O=C1CSC(C(=O)Nc2ccc(Cl)cc2)Cc2ccc(Cl)cc21 (centres undefined) , please?
Result: 235 to 236 °C

====

Each item that follows carries a reported melting point.

// known answers, use as guide
CC(C)(C)c1cc(NC(=O)NNC(=O)c2ccc(N)cc2)cc(C(C)(C)C)c1O    245 to 246 °C
O=[N+]([O-])c1cc(I)cc(OCc2ccccc2)c1    79 to 80 °C
CC(Cl)c1ccc(C(=O)c2cccs2)cc1 (stereo unspecified)    60 °C
COc1ccc2nc(-c3cccc(C)c3)cc(OCc3ccccc3)c2c1    133 to 134 °C
O=C(O)c1cn(-c2ccc(F)cc2F)c2cc(Cl)c(F)c(Cl)c2c1=O    244 to 246 °C

Q: Recorded melting point for CCCCc1nc(Cl)c(CO)n1Cc1ccc(-c2ccccc2-c2nnn(C(c3ccccc3)(c3ccccc3)c3ccccc3)n2)cc1 , please?
Result: 168 to 169 °C

====

outcome.measure: melting point

Cc1cc(S(=O)(=O)NCC(C)c2ccccc2)ccc1Cl (stereo unspecified)    73 to 74 °C
COc1ccc2nc(CBr)ccc2c1    103 °C
COc1cc(OC)nc(OC(C(=O)N[C@@H](C)C(=O)O)C(C)C)n1 (stereo partly specified)    157 to 160 °C
CC(O)(C(O)C(O)=Cc1ccccc1)C(O)(Br)C(O)C(O)=Cc1ccccc1 (stereo unspecified)    277 to 279 °C
COc1cc2cc(C(=O)OC(C)(C)C)c(N)cc2cc1OCc1ccccc1    179 to 180 °C

Lab note: next compound to report on.
Q: Recorded melting point for O=C(O)c1ccccc1C(=O)c1ccc(O)c(-c2ccccc2)c1 , please?
Result: 273 °C

====

Each item that follows carries a reported melting point.

Q: Recorded melting point for CCCC1=C(C(=O)OCC)C(c2cccc(Cl)c2C)c2c[nH]nc2N1 (stereo not given) , please?
Result: 185 °C

Q: Recorded melting point for CN(C(c1ccc(F)cc1)c1ccc(Cl)cc1Cl)n1cncn1 (stereo not given) , please?
Result: 118 to 119 °C

Q: Recorded melting point for NS(=O)(=O)c1cc2[nH]c(CO)nc2cc1Cl , please?
Result: 247 to 250 °C

Q: Recorded melting point for CC(C)(C)OC(=O)N1CCCN(c2ccc([N+](=O)[O-])cc2)CC1 , please?
Result: 128 to 130 °C

Q: Recorded melting point for CN(C)CC(=O)N1c2ccccc2N(C)S(=O)(=O)c2ccc(C(F)(F)F)cc21 , please?
Result: 156 to 157 °C
